Source listed as PubChem BioAssay (NCATS).

- protocol-summary: qHTS of pediatric cancer cell lines to identify multiple opportunities for drug repurposing: Primary screen for DAOY cells (AID 1347090); note: nearly all actives have a fitted effect of over 55% in size
- study-conditions: DAOY medulloblastoma viability, CellTiter-Glo luminescence, 48 h; series mostly up to 46 µM
Records with an inconclusive call do not appear. Active and inactive are the calls of the source. Calls come from the whole dose curve; as a rule, active = well fitted cell-killing curve with a large enough effect; inconclusive = small, poorly fitted or top-dose-only effect; inactive = flat fitted curve, though single readings scatter.
Select the correct class. Options are active, inactive and nothing else.

Some solved cases for reference:
COc1ccc2c(c1)CN(C)CC2c1ccc(Cl)c(Cl)c1 (configuration not stated)    inactive
O=S(=O)(F)Cc1ccccc1    inactive
C#CC1(O)CCC2C3CCC4=CC(=O)CCC4(C)C3CCC21C (configuration not stated)    inactive
c1cc2c(cc1[C@H]1OC[C@H]3[C@H]1CO[C@H]3c1ccc3c(c1)OCO3)OCO2    inactive
CCCN1CCO[C@@H]2c3cc(O)ccc3OC[C@@H]21    inactive
CC(C)(O)C(=O)Nc1ccc([N+](=O)[O-])c(C(F)(F)F)c1    active

*Q* # outcome recorded in this test, key = C[C@@H]1O[C@@H](O[C@@H]2C=C3CC[C@@H]4[C@@H](CC[C@]5(C)[C@H](c6ccc(=O)oc6)CC[C@@]45O)[C@@]3(C)CC2)[C@H](O)[C@H](O)[C@H]1O
*A* active

*Q* # outcome recorded in this test, key = Cc1nc(-c2ccc(-c3ccc(C(=O)N4CCc5cc6c(cc54)C4(CCN(C)CC4)CO6)cc3)c(C)c2)no1
*A* inactive

*Q* # outcome recorded in this test, key = N=c1c2c(-c3ccccc3)c(-c3ccccc3)n(Cc3ccccc3)c2ncn1C1CCC(O)CC1 (configuration not stated)
*A* inactive

*Q* # outcome recorded in this test, key = Fc1cc(Br)ccc1CBr
*A* inactive

*Q* # outcome recorded in this test, key = CCN1C[C@]2(OC(=O)c3ccccc3NC(C)=O)CC[C@H](OC)[C@@]34[C@H]5CC6[C@@H](OC)C[C@](O)(C(C[C@@H]23)[C@@H]14)[C@@]5(O)[C@@H]6OC
*A* inactive

*Q* # outcome recorded in this test, key = Nc1ccc([N+](=O)[O-])cc1
*A* inactive

*Q* # outcome recorded in this test, key = CC(=O)OCC1=C(C(=O)O)N2C(=O)[C@@H](N)[C@@H]2SC1
*A* inactive

* * *

- protocol-summary: qHTS assay for cell viability of the p53RE-bla HCT-116 cell line (AID 743292); note: % is set by controls: 0 for no effect and ±100 for the full control effect; nearly all actives have a fitted effect of over 55% in size
- study-conditions: p53RE-bla HCT-116 viability, ATP luminescence, 16 h; series mostly up to 95 µM
Results filed as inconclusive are left out. Calls of active or inactive are those of the source. The call rests on the fitted dose curve; in most records, active means well fitted cell-killing curve with a large enough effect; inconclusive means small, poorly fitted or top-dose-only effect, or effect the other way; inactive means flat fitted curve, though single readings scatter.
observation-type: outcome

COc1ccc(C(c2ccc(OC)cc2)C(Cl)(Cl)Cl)cc1    inactive
C=CCC1=C(C)C(OC(=O)C2C(C=C(C)C)C2(C)C)CC1=O (configuration not stated)    inactive
COc1nn(CSP(=S)(OC)OC)c(=O)s1    inactive
CCO/N=C(\CC)C1=C(O)CC(c2c(C)cc(C)cc2C)CC1=O (configuration not stated)    inactive
Cc1cc(O)ccc1Cl    inactive

*Q* Form field: reported outcome of CCCCOC(=O)c1ccccc1C(=O)OCc1ccccc1
*A* inactive

* * *

- System: WaGa
- protocol-summary: qHTS assay to identify novel small-molecules to repurpose for Merkel cell carcinoma treatment (AID 1296009); note: nearly all actives have a fitted effect of over 60% in size
- study-conditions: MCC and control cell lines, CellTiter-Glo viability, 72 h; series mostly up to 46 µM
- Text: MCC is a rare and aggressive neuroendocrine skin cancer with limited treatment options. Approximately 80% of MCCs have the Merkel cell polyomavirus (MCPyV) DNA integrated into the host genome (virus-positive: VP-MCC) and viral oncogenes drive oncogenesis. The remaining MCCs are virus-negative (VN-MCC) and are caused by UV mutagenesis. […] Using cell viability as a readout (CellTiter-Glo assay) we found both overlapping and distinct drugs that can be repurposed for the treatment of VP-MCC and VN-MCC. […]
Inconclusive results are not listed. Activity calls are given as the source filed them. The call rests on the fitted dose curve; in most records, active means well fitted inhibition curve with a large enough effect; inconclusive means small, poorly fitted or top-dose-only effect; inactive means flat fitted curve, though single readings scatter.
Select the correct class. Options are 1.0 (active), 0.0 (inactive) and nothing else.

Some solved cases for reference:
Oc1ccc2c3c1O[C@H]1c4[nH]c5c(c4C[C@@]4(O)[C@@H](C2)N(CC2CC2)CC[C@]314)C[C@@]1(O)[C@H]2Cc3ccc(O)c4c3[C@@]1(CCN2CC1CC1)[C@H]5O4    0.0
CCOC(=O)c1c(C(C#N)=CN)c2ccc(Cl)c(Cl)c2n1C    0.0
COC[C@H]1OC(=O)c2coc3c2[C@@]1(C)C1=C(C3=O)[C@@H]2CC[C@H](O)[C@@]2(C)C[C@@H]1OC(C)=O    1.0

Kindly review the next molecule as well.
*Q* # outcome recorded in this test, key = Nc1ccc(Sc2ccc(N)cc2)cc1
*A* 0.0
